QUANTITY_MEASURED: melting point

Example compounds with recorded melting point:
Cc1cc(C)cc(C(=O)c2c(-c3ccc(OCC(O)CNC(C)C)cc3)oc3ccccc23)c1 (stereo not drawn)    154 to 157 °C
CCO[C@@H](Cc1ccc(OCCc2nc(-c3ccc(C(F)(F)F)cc3)oc2C)c2ccsc12)C(=O)O    126 to 128 °C
CC(O)(C=Cc1ccc(S(=O)(=O)c2ccncc2)cc1)C(F)(F)F (stereo not drawn)    168 to 171 °C
COC(=O)C[C@H]1C[C@@H](C=Cc2ccccc2)OC(C)(C)O1 (relative stereo)    84 to 86.5 °C
CCOc1cc(CN2C(=O)c3ccccc3C2=O)c2c(c1)Oc1c(ccc(OCC)c1CO[Si](C)(C)C(C)(C)C)N2CC    158 to 159 °C
NS(=O)(=O)c1cc2nc(O)c(O)nc2c2scnc12    > 400 °C
CCCn1c(=O)c2c(NC)n[nH]c2n(CCc2ccccc2)c1=O    256 to 258 °C
O=C(c1cc(-c2ccc(F)cc2)c(-c2ccc(F)cc2)[nH]1)C(F)(F)F    211 to 212 °C
COc1ccc2c(c1)C(C(=O)N(Cc1ccc(OCC(F)(F)F)cc1)c1ccc(C(C)C)cc1)CCC2 (stereo not drawn)    125 to 127 °C
CN1CCOc2ccc(S(=O)(=O)n3c(Cc4ccc(C(=O)O)s4)cc4cc(C(F)(F)F)ccc43)cc21    120 to 144 °C

Could you report melting point for every entry in the following list?
1. Cc1c(Cc2ccc(C(C)C)cc2)c2c(c(C)c1NC(=O)CC(C)(C)C)C(C)(O)C(C)(C)O2 (stereo not drawn)
2. O=C(NC1CC1)c1cn2c(NCCCCCCNS(=O)(=O)c3ccccc3[N+](=O)[O-])nsc2n1
3. Cc1nc2c(Br)cc(Br)cn2c1C
4. COC(=O)C(C(=O)OC)c1c(C(=O)OCc2ccc(OC)cc2)cc([N+](=O)[O-])c2ccccc12
5. CCOCc1nc2c(N)nc3cc(-c4ccc(Cl)c(Cl)c4)cnc3c2n1CC(C)(C)O
6. CCCc1nn2ncc(C(=O)OCOC(=O)C(C)(C)C)c2n1Cc1ccc(-c2ccccc2-c2nnn[nH]2)cc1
7. COc1ccc2cc(OCc3ccccc3)c(C(=O)OCc3ccccc3)cc2c1

Result string:
170 to 171 °C
170 to 171 °C
> 90 °C
124 to 125 °C
144 to 147 °C
157 to 158 °C
96 to 98 °C

Could you report melting point for every entry in the following list?
1. COC(=O)c1cccc(F)c1O
2. Cc1ccc(-c2ccccc2C(=O)NC(C)(C)C)cc1
3. CN(C)C(=O)C(=O)c1ccc(Cl)cc1C(=O)c1ccccc1
4. COC(=O)Nc1cc(OC2CCCC2)c(Cl)cc1F
5. O=C(O)C(CCCc1cccc2ccccc12)c1ccccc1 (stereo not drawn)
6. CNC(=O)[C@H](Cc1ccc(OC(C)C)cc1)NC(=O)[C@@H](N)CC(C)C
7. CCCCOc1nc(N)c2nc(OC)n(CCNc3cccc(CC(=O)OC)c3)c2n1

Result string:
["94 to 95 °C", "105 to 106 °C", "88 to 90 °C", "120 to 123 °C", "99 to 100 °C", "148 to 160 °C", "119 to 120 °C"]

Could you report melting point for every entry in the following list?
1. COC1(c2ccc3ccccc3c2)OOC12C1CC3CC(C1)CC2C3 (stereo not drawn)
2. CC(=O)Nc1ccc(C2COC(=O)O2)cn1 (stereo not drawn)

Result string:
1: 116 °C; 2: 135 to 139 °C
